The following compounds are listed with their measured pKi values.
# system name: Human α2δ-1 subunit of Cav2.2 calcium channel (Homo sapiens, UniProt P54289)
# Sequence (P54289 25-1103): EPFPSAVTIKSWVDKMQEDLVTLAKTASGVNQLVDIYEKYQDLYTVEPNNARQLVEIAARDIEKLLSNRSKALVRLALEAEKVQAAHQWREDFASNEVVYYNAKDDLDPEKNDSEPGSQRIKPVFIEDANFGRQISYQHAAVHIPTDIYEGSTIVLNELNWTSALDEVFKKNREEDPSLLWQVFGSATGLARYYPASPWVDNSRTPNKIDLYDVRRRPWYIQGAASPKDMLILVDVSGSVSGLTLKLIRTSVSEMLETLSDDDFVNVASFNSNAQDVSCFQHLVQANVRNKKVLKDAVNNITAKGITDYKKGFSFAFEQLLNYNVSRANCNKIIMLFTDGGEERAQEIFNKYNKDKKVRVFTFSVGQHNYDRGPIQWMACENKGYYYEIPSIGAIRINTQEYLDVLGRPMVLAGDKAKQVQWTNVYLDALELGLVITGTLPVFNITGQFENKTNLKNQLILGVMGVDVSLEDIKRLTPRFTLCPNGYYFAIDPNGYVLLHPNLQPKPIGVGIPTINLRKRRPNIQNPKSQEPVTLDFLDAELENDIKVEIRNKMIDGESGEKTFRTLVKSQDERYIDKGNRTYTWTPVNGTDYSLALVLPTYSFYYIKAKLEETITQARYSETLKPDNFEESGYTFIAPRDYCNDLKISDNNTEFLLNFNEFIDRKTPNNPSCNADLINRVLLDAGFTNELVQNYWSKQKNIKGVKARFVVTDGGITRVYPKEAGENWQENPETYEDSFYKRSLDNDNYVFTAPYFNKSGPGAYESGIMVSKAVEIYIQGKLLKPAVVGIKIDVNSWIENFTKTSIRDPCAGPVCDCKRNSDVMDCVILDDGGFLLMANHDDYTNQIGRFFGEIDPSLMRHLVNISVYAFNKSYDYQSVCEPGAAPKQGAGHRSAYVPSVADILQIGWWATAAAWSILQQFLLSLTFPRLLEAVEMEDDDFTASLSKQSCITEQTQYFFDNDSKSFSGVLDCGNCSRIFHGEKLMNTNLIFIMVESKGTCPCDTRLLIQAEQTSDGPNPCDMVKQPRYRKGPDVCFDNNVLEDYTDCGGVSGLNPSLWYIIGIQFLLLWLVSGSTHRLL
# protocol details: Human α2δ-1 subunit of Cav2.2 calcium channel assay ([3H]-gabapentin binding)
# cond: binding to the α2δ-1 subunit of voltage-gated calcium channels, expressed as Ki class; + also covers inhibition between 1% and 50%
pKi: −log10 of the molar value.

Examples with answers:
CCCC(c1nc2ccc(F)c(F)c2c(=O)n1CC)N1CCCN(C)CC1 (stereo not shown) : > 6.30
CCC[C@H](c1nc2ccc(Br)cc2c(=O)n1CC)N1CCCN[C@H](C)C1 : > 6.30
CCC[C@H](c1nc2ccc(Br)cc2c(=O)n1CC)N1CCN(C)C[C@H](CO)C1 : > 6.30

Now examine the next entry.
Prompt: What is its pKi for Human α2δ-1 subunit of Cav2.2 calcium channel (Homo sapiens, UniProt P54289)? Entry: CCC[C@@H](c1nc2ccc(Br)cc2c(=O)n1CC)N1CCCN(C)CC1
Response: < 5.30
